Sourced from BindingDB's records for doi:10.7270/Q2PR7TCX

- SUBJECT OF TEST: Steroidogenic factor 1 (Homo sapiens, UniProt Q13285)
- Sequence (Q13285 whole entry, the tested form may be a part): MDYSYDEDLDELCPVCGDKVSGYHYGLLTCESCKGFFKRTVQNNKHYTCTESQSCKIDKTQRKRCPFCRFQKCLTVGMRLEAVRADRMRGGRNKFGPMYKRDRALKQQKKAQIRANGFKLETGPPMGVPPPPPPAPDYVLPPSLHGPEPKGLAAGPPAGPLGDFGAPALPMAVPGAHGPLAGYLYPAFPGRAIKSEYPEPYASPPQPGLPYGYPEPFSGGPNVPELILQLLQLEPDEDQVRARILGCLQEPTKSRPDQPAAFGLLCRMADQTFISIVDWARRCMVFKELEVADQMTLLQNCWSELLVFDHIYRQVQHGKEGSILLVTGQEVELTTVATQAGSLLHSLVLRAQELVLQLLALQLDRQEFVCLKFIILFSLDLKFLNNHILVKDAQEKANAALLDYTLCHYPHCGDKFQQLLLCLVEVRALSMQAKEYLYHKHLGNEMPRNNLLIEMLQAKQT
- EXPERIMENTAL PROTOCOL: inhibition of SF-1 LBD-driven luciferase – cell-based, CHO-K1, Gal4-SF-1 LBD, luciferase luminescence, counter-screen for RORA inhibitor project, dose response (AID 611)
Doc: threshold 4 µM (exclusive). Items with IC50 beneath it return condition met; others return condition not met.

Before answering, review these 3 worked examples.
{"COMPOUND": "COc1cc(CC(NC(C)=O)C(=O)NC2CCN(c3nc(C)cc(C)c3C#N)CC2)cc(OC)c1 (configuration not stated)", "CLASS": "condition not met"}
{"COMPOUND": "O=S1(=O)C=C(Sc2nc3ccccc3s2)c2ccccc21", "CLASS": "condition met"}
{"COMPOUND": "COc1ccc(-c2cc(C(F)(F)F)nc(S(C)(=O)=O)n2)cc1OC", "CLASS": "condition not met"}

Is it true that IC50 reported for O=C1c2ccccc2C(=O)C1c1ccc2ccccc2n1 is less than 4 µM?
condition not met

Is the reported IC50 for COc1cccc(N2CCN(c3ncnc4c3[nH]c3ccccc34)CC2C)c1 (configuration not stated) strictly below 4 µM?
condition not met

Consider the compound Cc1cc(C=Nn2cnnc2)c(C)n1-c1ccc(OCc2ccccc2F)cc1 [MLS000112180] . Is its IC50 strictly less than 4 µM?
condition not met

Dear reviewer, please state whether Oc1c(CN2CCCCC2)cc(COCc2ccccc2)c2cccnc12 has IC50 strictly beneath 4 µM.
condition not met

Confirm or reject: IC50 of c1ccc(-c2noc(-c3ccc4c(c3)OCO4)n2)nc1 lies strictly below 4 µM
condition met

* * *

Kindly state IC50 for each of the entries shown.
- SUBJECT OF TEST: UniProtKB Q13285
- EXPERIMENTAL PROTOCOL: inhibition of SF-1 LBD-driven luciferase – cell-based, CHO-K1, Gal4-SF-1 LBD, luciferase luminescence, counter-screen for RORA inhibitor project, dose response (AID 611)
One number for each entry, in µM.

{"COMPOUND": "CCCS(=O)(=O)c1nnnn1-c1cccc(OC)c1", "UNIT NAME": "µM", "IC50": 7.63}
{"COMPOUND": "COc1cccc(NC(=O)CSc2nnc(-c3cc(C)n(-c4ccccc4)c3C)o2)c1", "UNIT NAME": "µM", "IC50": 3.76}
{"COMPOUND": "Cc1ccc(-c2cn3nc(C)c(C)nc3n2)cc1", "UNIT NAME": "µM", "IC50": 4.13}
{"COMPOUND": "CCOc1ccc(-c2noc(CCC(=O)O)n2)cc1", "UNIT NAME": "µM", "IC50": 8.46}
{"COMPOUND": "CCOc1ccc(OCc2cccc(C(=O)O)c2)cc1 [3-[(4-ethoxyphenoxy)methyl]benzoic acid]", "UNIT NAME": "µM", "IC50": 0.274}
{"COMPOUND": "CCCCCOC(=O)c1[nH]c2c(c1C)C(=O)CC(c1ccco1)C2 (stereo unspecified)", "UNIT NAME": "µM", "IC50": 1.87}
{"COMPOUND": "Oc1c(CN2CCN(c3ccccn3)CC2)cc(Cl)c2cccnc12", "UNIT NAME": "µM", "IC50": 6.65}
{"COMPOUND": "Cc1ccc(C(=O)CC=Nc2ccccn2)cc1", "UNIT NAME": "µM", "IC50": 1.49}
{"COMPOUND": "Cc1ccc(-c2csc(N3CCC(NS(=O)(=O)c4ccc5c(c4)OCCO5)CC3)n2)cc1", "UNIT NAME": "µM", "IC50": 5.97}

Kindly review the next compound as well.
# input compound: CC(C)OCCCNc1ncnc2c1[nH]c1ccc(F)cc12 ; wanted: its IC50
6.34
